For each entry below, report its IC50 value.
Target: Voltage-gated inwardly rectifying potassium channel KCNH2 (Homo sapiens, UniProt Q12809)
Sequence (Q12809 whole entry): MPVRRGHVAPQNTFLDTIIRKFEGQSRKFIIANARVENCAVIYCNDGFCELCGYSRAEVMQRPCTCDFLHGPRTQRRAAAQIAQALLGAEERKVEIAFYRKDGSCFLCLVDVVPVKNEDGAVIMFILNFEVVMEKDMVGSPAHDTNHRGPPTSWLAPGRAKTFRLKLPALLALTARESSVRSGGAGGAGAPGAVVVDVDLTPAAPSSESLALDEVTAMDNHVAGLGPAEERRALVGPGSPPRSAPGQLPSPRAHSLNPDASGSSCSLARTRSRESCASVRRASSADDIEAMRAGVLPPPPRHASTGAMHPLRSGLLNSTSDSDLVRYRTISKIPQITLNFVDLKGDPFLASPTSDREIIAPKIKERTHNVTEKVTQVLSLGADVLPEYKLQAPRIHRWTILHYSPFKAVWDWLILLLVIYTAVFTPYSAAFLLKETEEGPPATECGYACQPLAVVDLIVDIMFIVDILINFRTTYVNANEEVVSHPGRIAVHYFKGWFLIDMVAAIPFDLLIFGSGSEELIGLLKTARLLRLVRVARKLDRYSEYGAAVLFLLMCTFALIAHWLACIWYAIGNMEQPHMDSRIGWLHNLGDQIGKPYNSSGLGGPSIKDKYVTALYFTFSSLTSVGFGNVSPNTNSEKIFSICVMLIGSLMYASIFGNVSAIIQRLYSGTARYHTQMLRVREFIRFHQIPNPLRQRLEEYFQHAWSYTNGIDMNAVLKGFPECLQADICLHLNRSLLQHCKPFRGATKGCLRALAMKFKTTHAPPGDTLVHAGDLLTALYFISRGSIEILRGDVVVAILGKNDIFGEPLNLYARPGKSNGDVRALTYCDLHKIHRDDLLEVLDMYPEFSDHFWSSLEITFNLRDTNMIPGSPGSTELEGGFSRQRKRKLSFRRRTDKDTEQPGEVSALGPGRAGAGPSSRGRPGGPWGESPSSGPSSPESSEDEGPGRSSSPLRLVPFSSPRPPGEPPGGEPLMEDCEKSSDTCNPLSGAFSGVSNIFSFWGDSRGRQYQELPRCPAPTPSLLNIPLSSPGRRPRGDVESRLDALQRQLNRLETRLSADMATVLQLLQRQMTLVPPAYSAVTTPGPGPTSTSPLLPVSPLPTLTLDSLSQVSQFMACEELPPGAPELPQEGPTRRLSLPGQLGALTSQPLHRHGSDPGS
Assay: Inhibition of human ERG expressed in HEK293 cells at -80 mV holding potential by patch clamp assay

compoundString	target	measuredProperty	endpointValue
NC(=O)c1ccn(-c2ccc(NCC3(c4ncccc4F)CCC3)nn2)c1	Voltage-gated inwardly rectifying potassium channel KCNH2 (Homo sapiens, UniProt Q12809)	IC50	97 µM
NC(=O)c1cnn(-c2ccc(NCC3(c4ncccc4F)CCC3)nn2)c1	Voltage-gated inwardly rectifying potassium channel KCNH2 (Homo sapiens, UniProt Q12809)	IC50	> 100 µM

Below: the item to evaluate.
Kindly note: Voltage-gated inwardly rectifying potassium channel KCNH2 (Homo sapiens, UniProt Q12809), NC(=O)c1cnc(-c2ccc(NCC3(c4ncccc4F)CCC3)nn2)s1 , IC50 value reported: > 100 µM

====

Test: Metabolic stability in human liver microsomes assessed as intrinsic clearance measured after 90 mins by HPLC/MS/MS analysis
Type: ADME, Microsome
Settings: read-out: CLH
measuredProperty: CLint scaled

Before answering, review these 4 worked examples.
compoundString	CLint scaled
CC(C)(CNc1ccc(-c2cccc(C(N)=O)c2)cn1)c1ccc(F)cc1	7 mL/min/kg
NC(=O)c1cccc(-c2ccc(NCC3(c4ccc(F)cn4)CCC3)nn2)c1	< 7 mL/min/kg
CC(C)(CNc1nc(-c2ccc(C(N)=O)cc2)ns1)c1ccc(F)cc1	9 mL/min/kg
NC(=O)c1ccn(-c2cnc(NCC3(c4ncccc4F)CCC3)nc2)c1	< 14 mL/min/kg

Need CLint scaled for each of these compounds.
1. NC(=O)c1ccn(-c2ccc(NCC3(c4ncccc4F)CCC3)nn2)c1
2. CC(C)(CNc1ccc(-c2cccc(C(N)=O)c2)nn1)c1ccc(F)cc1
3. NC(=O)c1cccc(-c2ccc(NCC3(c4cnccn4)CCC3)nn2)c1

1. < 14 mL/min/kg
2. 8 mL/min/kg
3. < 7 mL/min/kg

Need CLint scaled for each of these compounds.
1. NC(=O)c1cnn(-c2ccc(NCC3(c4ncccc4F)CCC3)nn2)c1
2. NC(=O)c1cnn(-c2ccc(NC[C@]3(c4ncccc4F)C[C@H](F)C3)nn2)c1

1. < 14 mL/min/kg
2. < 14 mL/min/kg

====

Assay: Intrinsic clearance in human hepatocytes
Type: ADME, cell-based, Hepatocyte
Details: read-out: CLH
measuredProperty: CLint scaled

For record NC(=O)c1ccn(-c2cnc(NC[C@]3(c4ncccc4F)C[C@H](F)C3)nc2)c1 [RELDESEMTIV] the listed CLint scaled is < 0.84 L/h/kg

====

Tested on: Psoas muscle
Experiment: Activation of fast twitch skeletal muscle in rabbit psoas muscle myofibrils by measuring increase in myofibril ATPase activity at 25% calcium concentration
Format: functional
Settings: Oryctolagus cuniculus
Response field label: string, one of 1.0 (EC40 strictly below 600 nM) or 0.0.

compound	cat
NC(=O)c1cnn(-c2ccc(NCC3(c4ncccc4F)CCC3)nn2)c1	1.0
CC(C)(CNc1cnc(-c2cccc(C(N)=O)c2)nc1)c1ccc(F)cc1	0.0
NC(=O)c1cc(-c2ccc(NCC3(c4ncccc4F)CCC3)nn2)ncn1	0.0

Now turn to the next compound.
Input NC(=O)c1cnc(-c2ccc(NCC3(c4ncccc4F)CCC3)nn2)o1 ; condition: EC40 strictly below 600 nM. Does it hold?
0.0

====

Test system: Psoas muscle
Assay: Activation of fast twitch skeletal muscle in rabbit psoas muscle myofibrils by measuring increase in myofibril ATPase activity at 25% calcium concentration
Format: functional
Conditions: Oryctolagus cuniculus
measuredProperty: EC40

molecule	EC40
NC(=O)c1cccc(-c2ccc(NCC3(c4ncccc4F)CCC3)nn2)c1	300 nM
CC(CNc1nc(Cc2ccc(F)cc2)ns1)c1ccc(Cl)cc1 (stereo not given)	1100 nM
NC(=O)c1cccc(-c2ccc(NCC3(c4cnccn4)CCC3)nn2)c1	46100 nM
NC(=O)c1cccc(-c2cnc(NC[C@]3(c4ncccc4F)C[C@H](F)C3)nc2)c1	300 nM

Below: the item to evaluate.
For record CC(C)(CNc1ncc(-c2cccc(C(N)=O)c2)cn1)c1ccc(F)cc1 the listed EC40 is 8700 nM
